The measured values listed here are drawn from PubChem BioAssay AID1159580.

Quick reference: normalized growth of the listed items.
Assay overview: chemical genetic growth profiling, strain panel (AID 1159580);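 note: tested at 20 µM; growth read once vehicle control cultures reached saturation at 30 °C; 1 = growth at the plate median or of vehicle wells; lower values mean less growth of the strain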
Experimental context: S. cerevisiae deletion strains, growth OD, locus YLR403W, strain SFP1, hits give low values
Hit rate of the full screen: of about 5,500 compounds, about 2,000 (36%) were called active. About 18% were inconclusive and are not listed. This is one part of the list.
Measured property: normalized growth

>  <Chemical string>
Clc1cccc(Nc2ncc(-c3ccc4c(c3)OCCCO4)s2)c1

>  <Result>
0.881 (inactive)

$$$$
>  <Chemical string>
O=S(=O)(Nc1cc(Cl)c(Cl)cc1Cl)c1cc(C(F)(F)F)cc(C(F)(F)F)c1

>  <Result>
0.916 (inactive)

$$$$
>  <Chemical string>
Cc1ccccc1/C=C/c1c[nH]c2ccccc12

>  <Result>
0.893 (inactive)

$$$$
>  <Chemical string>
C[C@@H](Nc1ncnc2sc3c(c12)CCCC3)c1ccccc1

>  <Result>
0.89 (inactive)

$$$$

###

Assay overview: chemical genetic growth profiling, strain panel (AID 1159580);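 note: tested at 20 µM; growth read once vehicle control cultures reached saturation at 30 °C; 1 = growth at the plate median or of vehicle wells; lower values mean less growth of the strain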
Experimental context: S. cerevisiae deletion strains, growth OD, locus YGL078C, strain dbp3, hits give low values
Among all 5,500 compounds or so, about 2,000 (36%) were called active. About 18% were inconclusive and are not listed. Some of the results follow.
Sorting guide: entries reporting normalized growth beneath 1 go in the Met pile, the rest go in the Not met pile.

>  <Compound>
CC1[C@H](C)OC(=O)CC(O)CC(O)CC(O)CCC(O)C(O)C[C@]2(O)CC(O)C(C(=O)O)C(CC(OC3O[C@H](C)[C@@H](O)[C@H](N)[C@@H]3O)/C=C/C=C/C=C/C=C/CC/C=C/C=C/[C@H](C)[C@H]1O)O2 (stereo partly specified)

>  <Classification>
Met

$$$$
>  <Compound>
COc1c(C)c2c(c(O)c1C/C=C(\C)CCC(=O)O)C(=O)OC2

>  <Classification>
Met

$$$$
>  <Compound>
O=c1oc2ccccc2cc1O

>  <Classification>
Met

$$$$
>  <Compound>
CC(=O)C1CC[C@H]2C3CC[C@H]4C[C@H](O)CC[C@]4(C)C3CC[C@]12C (stereo partly specified)

>  <Classification>
Met

$$$$
>  <Compound>
NC(N)=NCCN1CCCCCCC1

>  <Classification>
Not met

$$$$

###

Assay overview: chemical genetic growth profiling, strain panel (AID 1159580);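 note: tested at 20 µM; growth read once vehicle control cultures reached saturation at 30 °C; 1 = growth at the plate median or of vehicle wells; lower values mean less growth of the strain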
Experimental context: S. cerevisiae deletion strains, growth OD, locus YPR141C, strain kar3, hits give low values
Screen size: about 5,500 compounds; about 2,000 (36%) were called active. Roughly 18% stayed inconclusive and do not appear here. This is one part of the list.

>  <Compound>
CC(=O)C1CCC2C3CCC4C[C@H](O)CCC4(C)C3C[C@H](O)C12C (stereo partly drawn)

>  <normalized growth>
0.996

$$$$
>  <Compound>
CC(=O)OCC(=O)[C@@]1(O)CCC2C3CCC4=CC(=O)C=CC4(C)C3[C@@H](O)C[C@@]21C (stereo partly drawn)

>  <normalized growth>
1.02

$$$$
>  <Compound>
CC(=O)O[C@@H]1CC2C(C)(C)[C@H](O)CC[C@]2(C)C2CC[C@@]3(C)[C@H](c4ccoc4)OC(=O)[C@H]4O[C@]43[C@@]21C (stereo partly drawn)

>  <normalized growth>
1

$$$$
>  <Compound>
CC(=O)O[C@@H]1CC2C(C)(C)[C@@H](O)CC[C@]2(C)C2CC[C@@]3(C)[C@H](c4ccoc4)OC(=O)[C@H]4O[C@]43[C@@]21C (stereo partly drawn)

>  <normalized growth>
1.01

$$$$
>  <Compound>
COc1c(C)c2c(c(O)c1C/C=C(\C)CCC(=O)O)C(=O)OC2

>  <normalized growth>
0.575

$$$$
>  <Compound>
C[C@@H]1CC[C@H]2C(C)(C)C3CC12CC[C@@]3(C)O (stereo partly drawn)

>  <normalized growth>
0.991

$$$$
>  <Compound>
NCCCNCCSP(=O)(O)O

>  <normalized growth>
0.976

$$$$
>  <Compound>
c1ccc2c(CC3=NCCN3)cccc2c1

>  <normalized growth>
1.03

$$$$
>  <Compound>
NC(N)=NCCCCN=C(N)N

>  <normalized growth>
0.975

$$$$
>  <Compound>
N[C@@H](C(=O)O)[C@@H](O)[C@H](O)[C@H](O)CO

>  <normalized growth>
1.02

$$$$
>  <Compound>
O=C(O)COc1ccc(Cl)cc1Cl

>  <normalized growth>
1.03

$$$$
>  <Compound>
COc1ccc2c(c1)OCC(Cc1ccc(OC)c(OC)c1)C2=O (stereo not drawn)

>  <normalized growth>
0.992

$$$$
>  <Compound>
CCCNC(=O)NS(=O)(=O)c1ccc(Cl)cc1

>  <normalized growth>
1

$$$$
>  <Compound>
CC(C)/C(O)=C1/C(=O)O[C@@H](c2ccoc2)[C@]2(C)C(O)[C@@H](O)[C@@]34OC5(C)OC67CC(C)(C(O)[C@]6(O)[C@@H](O)[C@]3(O5)C12)[C@H](CC(=O)O)[C@]74C (stereo partly drawn)

>  <normalized growth>
1.02

$$$$
>  <Compound>
CCCCCCCCCCCCCC(=O)OC1C(C)C2(O)C(C=C(CO)CC3(O)C(=O)C(C)=CC32)C2C(C)(C)C12OC(C)=O (stereo not drawn)

>  <normalized growth>
0.986

$$$$
>  <Compound>
O=c1[nH]c(=O)n(C2C[C@H](O)[C@@H](CO)O2)cc1C(F)(F)F (stereo partly drawn)

>  <normalized growth>
0.959

$$$$
>  <Compound>
NC1(C(=O)O)CC1

>  <normalized growth>
1.02

$$$$
>  <Compound>
CC(=O)O[C@H]1C[C@@]2(C)[C@@H](C[C@@H](O)C3[C@]2(C)CC[C@H]2[C@H](C)[C@H](O)CC[C@]32C)/C1=C(/CCC=C(C)C)C(=O)O (stereo partly drawn)

>  <normalized growth>
1.03

$$$$
>  <Compound>
Fc1ccc([C@@H]2CCNC[C@H]2COc2ccc3c(c2)OCO3)cc1

>  <normalized growth>
1

$$$$
>  <Compound>
NCCCCNCCCN

>  <normalized growth>
0.991

$$$$
>  <Compound>
CC(C)(S)[C@@H](N)C(=O)O

>  <normalized growth>
0.993

$$$$
>  <Compound>
CC(=O)O[C@H]1C[C@@H](OC(C)=O)C(C)(C)C2C[C@@H](O)[C@]3(C)C(CC[C@@]4(C)[C@H](c5ccoc5)OC(=O)[C@H]5O[C@]543)[C@]21C (stereo partly drawn)

>  <normalized growth>
0.983

$$$$
>  <Compound>
O=c1oc2ccccc2cc1O

>  <normalized growth>
1

$$$$
>  <Compound>
CN(C)CCC(c1ccccc1)c1ccccn1 (stereo not drawn)

>  <normalized growth>
0.994

$$$$
>  <Compound>
C=C[C@@]1(C)CC(=O)[C@@]2(O)[C@](C)(O1)[C@@H](OC(C)=O)[C@@H](O)C1C(C)(C)CC[C@H](O)[C@@]12C (stereo partly drawn)

>  <normalized growth>
0.975

$$$$
>  <Compound>
Clc1ccc(C(c2ccccc2Cl)C(Cl)Cl)cc1 (stereo not drawn)

>  <normalized growth>
0.995

$$$$
>  <Compound>
NC1(C(=O)O)CCC1

>  <normalized growth>
0.981

$$$$
>  <Compound>
CC(=O)OC1CC(OC(C)=O)C2(C)C(CC(OC(C)=O)C3(C)C2CCC2(C)C(c4ccoc4)OC(=O)C4OC423)C1(C)C (stereo not drawn)

>  <normalized growth>
0.985

$$$$
>  <Compound>
NC(N)=NCCN1CCCCCCC1

>  <normalized growth>
1.02

$$$$
>  <Compound>
CCN1C[C@@]2(COC)C3[C@@H](OC)[C@H]4[C@@H]1[C@]3(C(OC)C[C@H]2O)C1C[C@@]2(O)[C@H](OC(=O)c3ccccc3)C1[C@]4(OC(C)=O)[C@@H](O)[C@@H]2OC (stereo partly drawn)

>  <normalized growth>
1.03

$$$$
>  <Compound>
CC(=O)O[C@]1(C)CC[C@@]23CC1C(C)(C)[C@@H]2CC[C@H]3C

>  <normalized growth>
1

$$$$
>  <Compound>
COc1cc2c(cc1OC)C1(O)C(=O)c3ccc(O)c(C(=O)O)c3OC1CO2 (stereo not drawn)

>  <normalized growth>
0.96

$$$$
>  <Compound>
CC(=O)C1CC[C@H]2C3CC[C@H]4C[C@H](O)CC[C@]4(C)C3CC[C@]12C (stereo partly drawn)

>  <normalized growth>
0.99

$$$$
